Some binders, each annotated with its measured OD value.
system.under.test: T1, recombinant human regenerating islet-derived protein 1α (REG1A) (human, UniProt P05451 23-166, limits assumed)
T1 construct: also called recombinant human REG1A; recombinant REG1A
T1 sequence (looked up): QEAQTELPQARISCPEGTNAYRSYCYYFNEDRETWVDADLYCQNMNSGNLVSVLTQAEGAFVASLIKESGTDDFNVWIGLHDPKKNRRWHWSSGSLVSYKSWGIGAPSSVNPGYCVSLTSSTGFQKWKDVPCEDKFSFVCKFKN
assay.explanation: sandwich ELISA; capture 4H8F1; REG1A 11.11 ng/mL
I only need the number, in OD, no unit after it.

Solved cases (2 shown):
binder	OD value, OD
antibody 11D11B11 (antibody, mouse IgG2a, kappa, V domains shown, Mouse monoclonal from hybridoma, stated mouse IgG1/Kappa; Used unlabelled as capture and biotin-labelled as detection antibody; also called 11D11B11-biotin) VH: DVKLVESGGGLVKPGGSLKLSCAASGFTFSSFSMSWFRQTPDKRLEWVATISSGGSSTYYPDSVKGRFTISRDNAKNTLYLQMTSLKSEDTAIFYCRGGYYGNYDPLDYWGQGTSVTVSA VL: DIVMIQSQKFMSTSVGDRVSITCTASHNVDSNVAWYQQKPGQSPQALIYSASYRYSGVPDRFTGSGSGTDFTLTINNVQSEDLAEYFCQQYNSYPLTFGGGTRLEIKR	4.1
antibody 4H8F1 (antibody, V domains shown, Mouse monoclonal from hybridoma, stated mouse IgG1/Kappa; also called 4H8F1-biotin; Antibody 1) VH: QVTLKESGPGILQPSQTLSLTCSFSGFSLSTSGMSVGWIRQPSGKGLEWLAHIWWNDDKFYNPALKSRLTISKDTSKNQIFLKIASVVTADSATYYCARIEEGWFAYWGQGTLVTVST VL: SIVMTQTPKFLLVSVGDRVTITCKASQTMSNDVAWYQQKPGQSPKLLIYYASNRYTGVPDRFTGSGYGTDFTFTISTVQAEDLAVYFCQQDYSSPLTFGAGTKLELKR	0.081

Documented OD value of antibody 21B11D2 (antibody, mouse IgG2b, kappa, V domains shown, Mouse monoclonal from hybridoma, stated mouse IgG1/Kappa; Used unlabelled as capture and biotin-labelled as detection antibody; also called 21B11D2-biotin) VH: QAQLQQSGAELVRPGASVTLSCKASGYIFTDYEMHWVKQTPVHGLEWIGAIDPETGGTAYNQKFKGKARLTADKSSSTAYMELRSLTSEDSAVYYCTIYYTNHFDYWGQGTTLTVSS VL: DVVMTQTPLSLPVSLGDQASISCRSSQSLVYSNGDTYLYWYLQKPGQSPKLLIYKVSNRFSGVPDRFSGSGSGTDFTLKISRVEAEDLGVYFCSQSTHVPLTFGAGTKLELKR : 0.07

Given item antibody 12F12A10 (antibody, V domains shown, Mouse monoclonal from hybridoma, stated mouse IgG1/Kappa; also called 12F12A10-biotin; Antibody 2) VH: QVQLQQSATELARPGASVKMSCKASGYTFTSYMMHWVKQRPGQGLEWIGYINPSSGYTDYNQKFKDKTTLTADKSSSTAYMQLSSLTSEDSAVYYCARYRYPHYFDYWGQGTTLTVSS VL: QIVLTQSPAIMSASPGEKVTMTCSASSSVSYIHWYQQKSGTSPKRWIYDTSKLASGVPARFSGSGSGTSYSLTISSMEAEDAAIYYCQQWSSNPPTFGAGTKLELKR , the value recorded as its OD value is 4.22
